Origin of measurements: patent US9920010B2

target: CXCR7 (Homo sapiens); experiment: PathHunter CHO-K1 CXCR7 b-arrestin recruitment assay (CXCR7 agonistic activity); settings: PathHunter CHO-K1 CXCR7 b-arrestin cell line
Please note: EC50 exactly at 40 nM is no. Only values below 40 nM get yes.

In plain terms, does CN(C)CCN(Cc1ccccc1)C(=O)CNc1cccc2c1CCN(CCc1ccccc1)C2 come in under 40 nM for EC50?
no

In plain terms, does O=C(CNc1cccc2c1CCN(CC1CC1)C2)N(Cc1ccccc1)C1CCS(=O)(=O)C1 (racemic) come in under 40 nM for EC50?
no

In plain terms, does CCNC(=O)N1CCc2c(cccc2NCC(=O)N(CCNC)Cc2ccccc2C(F)(F)F)C1 come in under 40 nM for EC50?
yes

In plain terms, does CCN(Cc1ccccc1Cl)C(=O)CNc1cccc2c1CCN(CC1CC1)C2 come in under 40 nM for EC50?
no

In plain terms, does CNCCN(Cc1ncccc1C(F)(F)F)C(=O)CNc1cccc2c1CCN(C(=O)NC(C)(C)C)C2 come in under 40 nM for EC50?
no

In plain terms, does O=C(CNc1cccc2c1CCN(CC1CC1)C2)N(Cc1ccccc1C(F)(F)F)C1CCNCC1 come in under 40 nM for EC50?
yes

In plain terms, does CCN1CCc2cccc(NCC(=O)N(CCN(C)C)Cc3ccccc3)c2C1 come in under 40 nM for EC50?
no

In plain terms, does CN(C)CCN(Cc1ccccc1)C(=O)CNc1cccc2c1CCN(Cc1ccccc1)C2 come in under 40 nM for EC50?
no

In plain terms, does COC(=O)CN1CCc2c(cccc2NCC(=O)N(CCN(C)C)Cc2ccccc2C(F)(F)F)C1 come in under 40 nM for EC50?
yes

In plain terms, does CCN1CCc2cccc(NCC(=O)N(CCN(C)C)Cc3ccc(Cl)cn3)c2C1 come in under 40 nM for EC50?
no

In plain terms, does CN(C)CCN(Cc1ncccc1Br)C(=O)CNc1cccc2c1C(C)(C)CN(CC1CC1)C2 come in under 40 nM for EC50?
yes

In plain terms, does CN(C)CCN(Cc1ccccc1)C(=O)CNc1cccc2c1CN(CC1CC1)C2 come in under 40 nM for EC50?
no

In plain terms, does CCC(=O)N1CCc2c(cccc2NCC(=O)N(CCC2CCCN2C)Cc2ccccc2)C1 (racemic) come in under 40 nM for EC50?
yes

In plain terms, does CN(C)CCN(Cc1ccccc1)C(=O)COc1cccc2c1CN(C(=O)c1ccccc1)CC2 come in under 40 nM for EC50?
yes

In plain terms, does CN(C)CCN(Cc1ccc(OC(F)(F)F)cc1)C(=O)CNc1cccc2c1CN(CC1CC1)CC2 come in under 40 nM for EC50?
no

----------
biological target: CXCR7 (Homo sapiens, UniProt P25106); assay: PathHunter CHO-K1 CXCR7 b-arrestin recruitment assay (CXCR7 agonistic activity); conditions: PathHunter CHO-K1 CXCR7 b-arrestin cell line
Sequence (P25106 whole entry): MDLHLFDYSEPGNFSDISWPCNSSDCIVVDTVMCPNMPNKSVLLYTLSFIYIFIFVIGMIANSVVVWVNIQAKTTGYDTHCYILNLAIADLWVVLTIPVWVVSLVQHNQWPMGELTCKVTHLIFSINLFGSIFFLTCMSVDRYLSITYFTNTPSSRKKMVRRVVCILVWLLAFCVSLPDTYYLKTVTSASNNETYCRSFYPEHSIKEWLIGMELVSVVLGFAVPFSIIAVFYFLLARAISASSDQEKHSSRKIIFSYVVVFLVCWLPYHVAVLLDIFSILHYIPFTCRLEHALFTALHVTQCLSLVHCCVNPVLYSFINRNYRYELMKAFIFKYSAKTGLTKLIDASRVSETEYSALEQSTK
Sequence (P32121 whole entry partner): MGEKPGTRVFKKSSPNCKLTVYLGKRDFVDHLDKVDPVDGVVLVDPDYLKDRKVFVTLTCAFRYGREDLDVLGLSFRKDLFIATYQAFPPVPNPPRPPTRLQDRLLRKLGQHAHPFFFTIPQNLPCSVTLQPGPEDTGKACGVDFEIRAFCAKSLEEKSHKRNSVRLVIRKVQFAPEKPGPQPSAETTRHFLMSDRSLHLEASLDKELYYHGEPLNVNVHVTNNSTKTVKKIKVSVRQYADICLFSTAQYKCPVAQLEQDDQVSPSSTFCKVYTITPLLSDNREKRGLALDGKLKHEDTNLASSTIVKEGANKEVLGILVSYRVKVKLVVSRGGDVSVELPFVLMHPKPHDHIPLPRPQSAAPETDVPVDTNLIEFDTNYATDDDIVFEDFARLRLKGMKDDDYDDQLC
pEC50: −log10 of the molar value.
# cutoff 7 applies to pEC50; >= gives YES, < gives NO

I'd appreciate it if you could say whether O=C(/C=C/c1cccc2c1CCN(CC1CC1)C2)N(CCN1CCC(F)(F)CC1)Cc1ncccc1Cl [Example 334] has pEC50 at least equal to 7.
YES

I'd appreciate it if you could say whether CN(C)CCN(Cc1ncccc1C(F)(F)F)C(=O)CNc1cccc2c1CCN(CC1CCC1)C2 [Example 368] has pEC50 at least equal to 7.
YES

I'd appreciate it if you could say whether COCCN1CCc2c(/C=C/C(=O)N(CCN(C)C(=O)OC(C)(C)C)Cc3ccccc3C(F)(F)F)cccc2C1 [Example 319] has pEC50 at least equal to 7.
NO

I'd appreciate it if you could say whether CC(C)CCN(Cc1ccccc1C(F)(F)F)C(=O)CNc1cccc2c1CCN(CC1CC1)C2 [Example 48] has pEC50 at least equal to 7.
YES

I'd appreciate it if you could say whether COC(=O)N1CCc2c(cccc2OCC(=O)N(CCN(C)C)Cc2ccccc2)C1 [Example 167] has pEC50 at least equal to 7.
YES

I'd appreciate it if you could say whether CC1Cc2c(cccc2NCC(=O)N(CCN(C)C)Cc2ccccc2C(F)(F)F)CN1CC1CC1 (racemic) [Example 212] has pEC50 at least equal to 7.
YES

I'd appreciate it if you could say whether CN(CCN(Cc1ccccc1C(F)(F)F)C(=O)CNc1cccc2c1CCN(CC1CC1)C2)C1CCC1 [Example 447] has pEC50 at least equal to 7.
YES

I'd appreciate it if you could say whether CN(C)CCN(Cc1ccccc1)C(=O)CNc1cccc2c1C(=O)N(C)CC2 [compound 184] has pEC50 at least equal to 7.
NO

I'd appreciate it if you could say whether CCN1CCc2cccc(NCC(=O)N(CCN3CCCC3)Cc3ccccc3)c2C1 [compound 509] has pEC50 at least equal to 7.
YES

I'd appreciate it if you could say whether CN1CCCC1CCN(C/C=C/c1ccccc1)C(=O)CNc1cccc2c1CCN(CC1CC1)C2 (racemic) [Example 53] has pEC50 at least equal to 7.
YES

I'd appreciate it if you could say whether CC(C)(O)CN(Cc1ncccc1Cl)C(=O)/C=C/c1cccc2c1CCN(CC1CC1)C2 [Example 329] has pEC50 at least equal to 7.
YES

I'd appreciate it if you could say whether CN(C)CCN(Cc1ccccc1)C(=O)CNc1cccc2c1CN(CC1CC1)CC2 [compound 187] has pEC50 at least equal to 7.
YES

----------
target: CXCR7 (Homo sapiens); test: PathHunter CHO-K1 CXCR7 b-arrestin recruitment assay (CXCR7 agonistic activity); conditions: PathHunter CHO-K1 CXCR7 b-arrestin cell line
PROPERTY_LABEL: pEC50
pEC50 is a log-scale quantity: -log10 of the concentration expressed in molar.

Looking up CC(C)CN1Cc2cccc(NCC(=O)N(CCN3CCCC3)Cc3ccccc3C(F)(F)F)c2CC1=O [Example 314] , I see its pEC50 listed as 7.64

Looking up CCN1CCc2c(cccc2OCC(=O)N(CCN(C)C)Cc2ccccc2C(F)(F)F)C1 [compound 173] , I see its pEC50 listed as 8.30

Looking up CN(C)CCN(Cc1ccccc1C(F)(F)F)C(=O)CNc1cccc2c1CCN(CC1CCC1)C2 [Example 361] , I see its pEC50 listed as 8.22

Looking up CCC(=O)N1CCc2c(cccc2OCC(=O)N(CCN(C)C)Cc2ccccc2)C1 [compound 169] , I see its pEC50 listed as 7.38

Looking up O=C(CNc1cccc2c1CCN(CC1CC1)C2)N(CCN1CCC(F)(F)CC1)Cc1ncccc1Cl [Example 249] , I see its pEC50 listed as 7.92

Looking up CCN1CCc2cccc(NCC(=O)N(CCN3CCCC3=O)Cc3ccccc3C(F)(F)F)c2C1 [compound 517] , I see its pEC50 listed as 6.52

Looking up CN(C)CCN(Cc1ccccc1OC(F)(F)F)C(=O)CNc1cccc2c1CN(CC1CC1)CC2 [compound 472] , I see its pEC50 listed as 7.68

Looking up CN(C)CCN(Cc1ccccc1)C(=O)CNc1cccc2c1CCN(CCC(C)(C)C)C2 [compound 120] , I see its pEC50 listed as 6.81

----------
target: CXCR7 (Homo sapiens, UniProt P25106); experiment: PathHunter CHO-K1 CXCR7 b-arrestin recruitment assay (CXCR7 agonistic activity); conditions: PathHunter CHO-K1 CXCR7 b-arrestin cell line
Record form. Attribute: EC50. Fill in for each entry.

Looking up CC(C)(O)CN(Cc1ncccc1Br)C(=O)CNc1cccc2c1C(C)(C)CN(CC1CC1)C2 [Example 576] , I see its EC50 listed as 0.006 µM

Looking up CNCCN(Cc1ccccc1C(F)(F)F)C(=O)CNc1cccc2c1CCN(C(=O)OC(C)C)C2 [compound 399] , I see its EC50 listed as 0.064 µM

Looking up CC(C)N(CCN(Cc1ccccc1C(F)(F)F)C(=O)CNc1cccc2c1CCN(CC1CC1)C2)C(C)C [Example 219] , I see its EC50 listed as 0.003 µM

Looking up CN(C)CCN(Cc1cccc(OC(F)(F)F)c1)C(=O)CNc1cccc2c1CCN(CC1CC1)C2 [Example 221] , I see its EC50 listed as 0.009 µM

Looking up CCN1CCc2cccc(NCC(=O)N(CCN(C)C)Cc3cc(C)on3)c2C1 [compound 535] , I see its EC50 listed as 0.355 µM

Looking up CCN1CCc2cccc(NCC(=O)N(CCN(C)C)Cc3ccccn3)c2C1 [compound 540] , I see its EC50 listed as 0.22 µM

Looking up CCCN1CCc2cccc(NCC(=O)N(CCN(C)C)Cc3ccccc3C(F)(F)F)c2C1 [compound 556] , I see its EC50 listed as 0.008 µM

Looking up COCCN1CCc2c(CCC(=O)N(CCN(C)C)Cc3ccccc3C(F)(F)F)cccc2C1 [Example 335] , I see its EC50 listed as 0.023 µM

Looking up CN(C)CCN(Cc1ccccc1)C(=O)CNc1cccc2c1CCN(CC(C)(C)C)C2 [compound 116] , I see its EC50 listed as 0.096 µM

Looking up CN(C)CCN(Cc1ncccc1C(F)(F)F)C(=O)CNc1cccc2c1CCN(CC1CC1)C2 [Example 47] , I see its EC50 listed as 0.002 µM

Looking up O=C(CNc1cccc2c1CCN(CC1CC1)C2)N(Cc1ccccc1C(F)(F)F)C[C@H]1CCNC1 [compound 380] , I see its EC50 listed as 0.006 µM

Looking up CN(C)CCN(Cc1ccccc1C(F)(F)F)C(=O)CNc1cccc2c1CCN(C1COC1)C2 [Example 353] , I see its EC50 listed as 0.085 µM

Looking up O=C(Cc1cccc2c1CCN(CC1CC1)C2)N(CCN1CCCC1)Cc1ccccc1C(F)(F)F [Example 7] , I see its EC50 listed as 0.032 µM

Looking up CNCCN(Cc1ccccc1C(F)(F)F)C(=O)CNc1cccc2c1CCN(C(=O)OC)C2 [compound 394] , I see its EC50 listed as 0.009 µM

Looking up CNCCN(Cc1ncccc1C(F)(F)F)C(=O)CNc1cccc2c1CCN(C(=O)NC(C)C)C2 [compound 430] , I see its EC50 listed as 0.009 µM

Looking up CCN1CCc2c(cccc2NCC(=O)N(CCN(C)C)Cc2ccccc2)C1 [compound 107] , I see its EC50 listed as 0.043 µM
